The reported measurements were obtained from paper PMC12903969.

- Tested on: MDA-MB-468 breast cancer cells
- test summary: Cytotoxicity test (CCK-8)
- Type: cell-based
- test conditions: MDA-MB-468 breast cancer cells; read-out: IC50 ± SD (μM) for MDA-MB-468 Inhibition
Known IC50 of a selection of compounds

{"smiles str": "c1ccc2c(c1)oc1ccc(N[C@H]3CC[C@@H](NCCCN4CCOCC4)CC3)cc12", "relation qualifier": "=", "IC50 / µM": 19.5}
{"smiles str": "c1ccc2c(c1)oc1ccc(Nc3cncc(NCCCN4CCOCC4)n3)cc12", "relation qualifier": "=", "IC50 / µM": 21.6}
{"smiles str": "c1ccc2c(c1)oc1ccc(NC34C[C@@H]5C[C@@H](CC(NCCCN6CCOCC6)(C5)C3)C4)cc12", "relation qualifier": ">", "IC50 / µM": 50}
{"smiles str": "c1cc(NC23CC4CC(CC(C4)C2)C3)nc(NCCCN2CCOCC2)n1", "relation qualifier": "=", "IC50 / µM": 22.2}

* * *

- target under test: Kir4.1 (Homo sapiens, UniProt P78508)
- Construct: host or cells: CHO-K1
- Sequence (P78508 whole entry): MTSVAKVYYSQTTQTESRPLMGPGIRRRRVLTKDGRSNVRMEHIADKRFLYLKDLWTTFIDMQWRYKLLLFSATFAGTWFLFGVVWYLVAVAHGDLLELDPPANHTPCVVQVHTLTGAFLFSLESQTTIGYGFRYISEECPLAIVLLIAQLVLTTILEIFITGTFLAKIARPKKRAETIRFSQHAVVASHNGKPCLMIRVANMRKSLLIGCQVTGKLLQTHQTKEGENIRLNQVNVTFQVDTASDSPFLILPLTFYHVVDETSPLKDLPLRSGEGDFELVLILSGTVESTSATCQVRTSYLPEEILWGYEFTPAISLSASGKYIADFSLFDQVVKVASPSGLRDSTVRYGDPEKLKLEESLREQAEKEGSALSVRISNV
- test summary: Whole-cell patch clamp, Kir4.1 currents in transfected CHO-K1 cells
- Type: cell-based
- test conditions: CHO-K1, 0.5 μM; -120 mV; read-out: Kir4.1 Inhibition ± SD (%) at 0.5 μM, -120 mV
Known inhibition at 0.5 µM of a selection of compounds

{"compound": "CCn1c2ccccc2c2cc(Nc3ccnc(NCCCN4CCOCC4)n3)ccc21 [EHop-016, reference compound]", "inhibition at 0.5 µM": "19%"}
{"compound": "c1ccc2c(c1)oc1ccc(Nc3ccnc(NCCCN4CCCCC4)n3)cc12", "inhibition at 0.5 µM": "63%"}
{"compound": "c1ccc2c(c1)oc1ccc(Nc3ccnc(NCCCN4CCOCC4)c3)cc12", "inhibition at 0.5 µM": "40.2%"}

* * *

- target under test: Kir4.1 (Homo sapiens, UniProt P78508)
- Construct: host or cells: CHO-K1
- test summary: Whole-cell patch clamp, Kir4.1 currents in transfected CHO-K1 cells
- Type: cell-based
- test conditions: whole-cell patch clamp, CHO cells transiently expressing Kir4.1, +50 mV; read-out: IC50 for Kir4.1 inhibition (+50 mV, outward currents)
Known IC50 of a selection of compounds
assay metric: IC50

{"compound": "CCn1c2ccccc2c2cc(Nc3ccnc(NCCCN4CCOCC4)n3)ccc21 [EHop-016, reference compound]", "target under test": "Kir4.1 (Homo sapiens, UniProt P78508)", "assay metric": "IC50", "endpoint value": "610 nM"}
{"compound": "c1ccc2c(c1)oc1ccc(Nc3ccnc(NCCCN4CCOCC4)n3)cc12", "target under test": "Kir4.1 (Homo sapiens, UniProt P78508)", "assay metric": "IC50", "endpoint value": "190 nM"}

* * *

Known Kir4.1 Inhibition ± SD (%) at 10 μM, -120 mV of a selection of compounds
- target under test: Kir4.1 (Homo sapiens)
- Construct: host or cells: CHO-K1
- test summary: Whole-cell patch clamp, Kir4.1 currents in transfected CHO-K1 cells
- Format: cell-based
- test conditions: 10 μM; -120 mV
- From the text: Plasmids encoding WT human potassium channels Kir1.1, Kir2.1, Kir2.2, Kir4.1, and Kir4.2 were obtained from the Beijing Genomics Institute. All point mutations were constructed using the QuickChange II Site‐Directed Mutagenesis Kit (Stratagene) and subsequently verified by sequencing. CHO‐K1 cells were maintained in DMEM/F12 growth medium containing 10% fetal bovine serum. […]
assay metric: Kir4.1 Inhibition ± SD (%) at 10 μM, -120 mV

{"compound": "c1ccc2c(c1)oc1ccc(Nc3cncc(NCCCN4CCOCC4)n3)cc12 [JX3224]", "endpoint value": 87.90}
{"compound": "c1ccc2c(c1)oc1ccc(NC34C[C@@H]5C[C@@H](CC(NCCCN6CCOCC6)(C5)C3)C4)cc12", "endpoint value": 64.42}
{"compound": "c1ccc2c(c1)oc1ccc(N[C@H]3CC[C@@H](NCCCN4CCOCC4)CC3)cc12", "endpoint value": 86.98}
{"compound": "c1ccc2c(c1)oc1ccc(Nc3cncc(NCCCN4CCOCC4)n3)cc12 [JX3223]", "endpoint value": 6.62}
{"compound": "c1cc(NC23CC4CC(CC(C4)C2)C3)nc(NCCCN2CCOCC2)n1", "endpoint value": 31.27}

* * *

- test summary: Plasma/tissue (kidney) distribution
- Assay type: in vivo
- test conditions: male, C57BL/6J, mouse, kidney, ip; mice (N = 3), 10 mg/kg i.p., 1 h; read-out: Kidney Calculated Concentration

{"smiles str": "c1ccc2c(c1)oc1ccc(Nc3ccnc(NCCCN4CCOCC4)n3)cc12", "unit spec": "µg/mL", "concentration at 1 h": 18.4}

* * *

- target under test: UniProtKB P31645
- Sequence (P31645 whole entry): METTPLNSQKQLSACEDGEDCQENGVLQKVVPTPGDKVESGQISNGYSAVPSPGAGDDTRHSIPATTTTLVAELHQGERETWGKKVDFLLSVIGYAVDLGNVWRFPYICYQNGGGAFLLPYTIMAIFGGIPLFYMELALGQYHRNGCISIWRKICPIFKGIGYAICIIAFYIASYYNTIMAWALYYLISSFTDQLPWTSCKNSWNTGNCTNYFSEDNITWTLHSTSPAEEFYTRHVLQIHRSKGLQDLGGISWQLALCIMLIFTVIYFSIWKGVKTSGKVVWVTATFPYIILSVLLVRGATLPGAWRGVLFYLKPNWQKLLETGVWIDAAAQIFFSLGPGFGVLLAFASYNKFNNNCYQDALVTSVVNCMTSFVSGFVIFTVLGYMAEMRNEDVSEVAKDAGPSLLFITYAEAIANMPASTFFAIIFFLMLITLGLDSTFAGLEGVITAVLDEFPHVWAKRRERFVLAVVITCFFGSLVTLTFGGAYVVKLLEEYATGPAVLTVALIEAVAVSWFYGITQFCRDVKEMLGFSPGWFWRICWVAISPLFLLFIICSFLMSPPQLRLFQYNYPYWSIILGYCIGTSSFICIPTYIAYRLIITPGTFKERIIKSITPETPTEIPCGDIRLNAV
- test summary: 5-HTT functional assay (fluorescent neurotransmitter transporter uptake)
pIC50: −log10 of the molar value.
assay metric: pIC50

{"compound": "c1ccc2c(c1)oc1ccc(Nc3ccnc(NCCCN4CCOCC4)n3)cc12 [JX3212]", "endpoint value": 5.19}

* * *

- target under test: 5-HT2A receptor (Homo sapiens)
- Construct: expressed in transfected cells
- Sequence (P28223 whole entry): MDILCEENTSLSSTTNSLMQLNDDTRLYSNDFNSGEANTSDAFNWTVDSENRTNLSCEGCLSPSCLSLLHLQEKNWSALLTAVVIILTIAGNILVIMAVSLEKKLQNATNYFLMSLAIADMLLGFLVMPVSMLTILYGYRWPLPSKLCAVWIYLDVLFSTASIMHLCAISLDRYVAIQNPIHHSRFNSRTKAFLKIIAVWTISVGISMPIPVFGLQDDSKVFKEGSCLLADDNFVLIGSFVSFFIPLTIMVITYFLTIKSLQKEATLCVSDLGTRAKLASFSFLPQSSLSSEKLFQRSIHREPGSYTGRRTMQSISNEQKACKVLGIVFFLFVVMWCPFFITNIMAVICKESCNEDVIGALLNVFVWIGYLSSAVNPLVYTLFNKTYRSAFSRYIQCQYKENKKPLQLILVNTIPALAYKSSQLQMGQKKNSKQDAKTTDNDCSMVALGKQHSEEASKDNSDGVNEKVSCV
- test summary: 5-HT2A functional assay (Fluo-4 calcium, FDSS)
- Type: cell-based
- test conditions: agonistic effect
assay metric: EC50

{"smiles str": "c1ccc2c(c1)oc1ccc(Nc3ccnc(NCCCN4CCOCC4)n3)cc12", "endpoint value": "> 60 µM"}

* * *

- target under test: Kir4.1 (Homo sapiens, UniProt P78508)
- Construct: host or cells: CHO-K1
- test summary: Whole-cell patch clamp, Kir4.1 currents in transfected CHO-K1 cells
- Format: cell-based
- test conditions: CHO-K1, 1 μM; -120 mV; read-out: Kir4.1 Inhibition ± SD (%) at 1 μM, -120 mV
- From the text: Plasmids encoding WT human potassium channels Kir1.1, Kir2.1, Kir2.2, Kir4.1, and Kir4.2 were obtained from the Beijing Genomics Institute. All point mutations were constructed using the QuickChange II Site‐Directed Mutagenesis Kit (Stratagene) and subsequently verified by sequencing. CHO‐K1 cells were maintained in DMEM/F12 growth medium containing 10% fetal bovine serum. […]
Assign t to entries whose inhibition at 1 µM meets or exceeds 40%; assign f to the rest.

{"compound": "CC1CCN(CCCNc2nccc(Nc3ccc4oc5ccccc5c4c3)n2)CC1", "target under test": "Kir4.1 (Homo sapiens, UniProt P78508)", "qualitative label": "t"}
{"compound": "CC1CC(C)CN(CCCNc2nccc(Nc3ccc4oc5ccccc5c4c3)n2)C1 (stereo not drawn)", "target under test": "Kir4.1 (Homo sapiens, UniProt P78508)", "qualitative label": "t"}
{"compound": "COC1CCN(CCCNc2nccc(Nc3ccc4oc5ccccc5c4c3)n2)CC1", "target under test": "Kir4.1 (Homo sapiens, UniProt P78508)", "qualitative label": "t"}
{"compound": "c1ccc2c(c1)oc1ccc(Nc3ccnc(NCCCN4CCN(C5COC5)CC4)n3)cc12", "target under test": "Kir4.1 (Homo sapiens, UniProt P78508)", "qualitative label": "f"}
{"compound": "c1ccc2c(c1)oc1ccc(Nc3ccnc(NCC4(CN5CCOCC5)CC4)n3)cc12", "target under test": "Kir4.1 (Homo sapiens, UniProt P78508)", "qualitative label": "f"}
{"compound": "c1ccc2c(c1)oc1ccc(Nc3ccnc(NCCCN4CCOCC4)c3)cc12", "target under test": "Kir4.1 (Homo sapiens, UniProt P78508)", "qualitative label": "t"}
{"compound": "c1ccc2c(c1)ccc1[nH]c3ccc(Nc4ccnc(NCCCN5CCOCC5)n4)cc3c12", "target under test": "Kir4.1 (Homo sapiens, UniProt P78508)", "qualitative label": "t"}
{"compound": "c1ccc2c(c1)oc1ccc(Nc3cnc(NCCCN4CCOCC4)cn3)cc12", "target under test": "Kir4.1 (Homo sapiens, UniProt P78508)", "qualitative label": "f"}
{"compound": "c1ccc2c3c([nH]c2c1)CCC(Nc1ccnc(NCCCN2CCOCC2)n1)C3 (stereo not drawn)", "target under test": "Kir4.1 (Homo sapiens, UniProt P78508)", "qualitative label": "t"}

* * *

Known inhibition at 10 µM of a selection of compounds
- target under test: Kir4.1 (Homo sapiens)
- Construct: host or cells: CHO-K1
- test summary: Whole-cell patch clamp, Kir4.1 currents in transfected CHO-K1 cells
- Assay type: cell-based
- test conditions: CHO-K1, 10 μM; +50 mV; read-out: Kir4.1 Inhibition ± SD (%) at 10 μM, +50 mV

{"compound": "CC1CC(C)CN(CCCNc2nccc(Nc3ccc4oc5ccccc5c4c3)n2)C1 (stereo not shown)", "inhibition at 10 µM / %": 97.8}
{"compound": "c1ccc(Nc2ccnc(NCCCN3CCOCC3)n2)cc1", "inhibition at 10 µM / %": 5.73}
{"compound": "Nc1ccnc(NCCCN2CCOCC2)n1", "inhibition at 10 µM / %": 3.02}
{"compound": "c1ccc2c(c1)oc1ccc(Nc3ccnc(NCCCN4CCOCC4)c3)cc12", "inhibition at 10 µM / %": 97.4}
{"compound": "c1ccc2c(c1)oc1ccc(Nc3ccnc(NCCCN4CCSCC4)n3)cc12", "inhibition at 10 µM / %": 98.7}
{"compound": "O=C(NCCNc1nccc(Nc2ccc3oc4ccccc4c3c2)n1)N1CCOCC1", "inhibition at 10 µM / %": 89.2}
{"compound": "CC1(C)c2ccccc2-c2cc(Nc3ccnc(NCCCN4CCOCC4)n3)ccc21", "inhibition at 10 µM / %": 93.2}
